These entries and their values trace back to ChEMBL document CHEMBL3351449.

- Target Desc: Fatty-acid amide hydrolase 1 (Homo sapiens)
- Method Summary: Inhibition of human recombinant FAAH using AMC arachidonoyl amide as substrate assessed as residual activity at 10 uM by fluorescence assay
I'd be grateful if you could share measured Activity for these entries.
One number for each entry, in %.

For orientation, consider the following solved cases.
- CCCCC/C=C\C/C=C\C/C=C\C/C=C\CCCC(=O)NCCc1c[nH]c2ccc(O)cc12: 78
- O=C(Cc1ccccc1Nc1c(Cl)cccc1Cl)NCCc1c[nH]c2ccc(O)cc12: 98
- CC(C)Cc1ccc(C(C)C(=O)NCCc2c[nH]c3ccc(O)cc23)cc1 (stereo not given): 75
- O=C(c1ccccc1)c1ccc2n1CCC2C(=O)NCCc1c[nH]c2ccc(O)cc12 (stereo not given): 98

Turning to the following molecule.
Q) State its Activity: O=C(NCCc1c[nH]c2ccc(O)cc12)c1ccccc1Nc1cccc(C(F)(F)F)c1
A) 107
